Item-by-item account of TGI
# Test system: SW-620 colon
# assay_protocol: NCI tumour cell line growth inhibition, 48 h
measured_quantity: TGI

compound	value_measured
Cn1cc(CNCC2CCN(c3ncc(C(=O)NO)cn3)CC2)c2ccccc21	2.11 µM
C[N+]1(C)C/C(=C\c2ccncc2)C(=O)/C(=C/c2ccncc2)C1	> 100 µM
O=c1[nH]c2cc3[nH]c4ncccc4c(=O)c3cc2[nH]1	> 10 µM
C=C(C=O)CCCC(C)[C@@H]1CCC23CC12CCC1[C@@]2(C)CCC(OC(C)=O)C(C)(C)C2CC(OC2OC(COC(C)=O)C(O)C(O)C2O)[C@]13C (stereo partly drawn)	1.44 µM
Cc1cc(=O)oc2cc(O)ccc12	> 100 µM
COc1ccc(Cn2c(Cl)c(/C=C3/C(=O)Nc4ccccc43)c3cc(OC)c(C)cc32)cc1	> 100 µM
O=C([CH-]C(=O)C(F)(F)F)c1ccccc1.O=C([CH-]C(=O)C(F)(F)F)c1ccccc1.O=C([CH-]C(=O)C(F)(F)F)c1ccccc1.O=C([CH-]C(=O)C(F)(F)F)c1ccccc1.[Eu+3].c1ccncc1	> 100 µM
COc1cc(C2S/C(=C/c3ccccc3)C(=O)N2c2ccc(Cl)c(Cl)c2)cc(OC)c1OC (stereo not drawn)	> 100 µM

---

# Test system: MDA-MB-435
# assay_protocol: NCI tumour cell line growth inhibition, 48 h
measured_quantity: TGI (µM)

In [3]: df
Out[3]:
                                   compound  scale_unit  value_comparator  value_measured
0  S=C(S)NCC1CCC(CNC(=S)S)CC1 (stereo not drawn)          µM                 =            61.4
1    CSc1c(C#N)c2n(c3ccccc13)c1ccccc1[n+]2C          µM                 =            79.5
2  [N-]=[N+]=Nc1ccc(CNc2cc(=O)[nH]c(=O)[nH]2)cc1          µM                 >              80

---

# TGI per entry
# Tested on: SF-539 CNS
# assay_protocol: NCI tumour cell line growth inhibition, 48 h
measured_quantity: TGI

In [3]: df
Out[3]:
                               query_smiles  value_measured
0                 O=[N+]([O-])c1nccn1COCCBr        > 100 µM
1  Cc1ccc(C(=O)/C(C#N)=C/Nc2c(C)n(C)n(-c3ccccc3)c2=O)cc1        > 100 µM
2  CN(C)C(=O)O[C@@H]1CN[C@@H](C#Cc2cc3ncnc(Nc4ccc(OCc5cccc(F)c5)c(Cl)c4)c3s2)C1         > 25 µM
3  CCOC(=O)c1cc(/C=C/C(C)=C/C(=O)OC)n(C)c1C        > 100 µM
4  CSC1=NS(=O)(=O)c2cc(C(=O)NN(C)C(=O)c3cc4c(cc3Cl)SC(SC)=NS4(=O)=O)c(Cl)cc2S1         > 10 µM
5    O=C1CC(=O)OC(c2ccc([N+](=O)[O-])cc2)O1          4.3 µM
6          CN(C)CCCOCCn1c2c(c3ccccc31)CCCC2         33.2 µM
7    Oc1ccccc1-c1nc2c3ccccc3c3ccccc3c2[nH]1         21.2 µM
8  COC(=O)c1nc(N)[nH]c(=O)c1CCCCCc1c(C(=O)OC)nc(N)[nH]c1=O         > 50 µM
9  CC(C)[C@H]1C(=O)N[C@@H](CCCN=C(N)N)C(=O)NCC(=O)N[C@@H](CC(=O)O)C(=O)N[C@H](Cc2ccccc2)C(=O)N1C        > 100 µM
